Data provenance: patent US20180057604A1

Target: BACE1 in primary mouse cortical neurons (mouse, UniProt P56818 46-501)
Sequence (P56818 46-501): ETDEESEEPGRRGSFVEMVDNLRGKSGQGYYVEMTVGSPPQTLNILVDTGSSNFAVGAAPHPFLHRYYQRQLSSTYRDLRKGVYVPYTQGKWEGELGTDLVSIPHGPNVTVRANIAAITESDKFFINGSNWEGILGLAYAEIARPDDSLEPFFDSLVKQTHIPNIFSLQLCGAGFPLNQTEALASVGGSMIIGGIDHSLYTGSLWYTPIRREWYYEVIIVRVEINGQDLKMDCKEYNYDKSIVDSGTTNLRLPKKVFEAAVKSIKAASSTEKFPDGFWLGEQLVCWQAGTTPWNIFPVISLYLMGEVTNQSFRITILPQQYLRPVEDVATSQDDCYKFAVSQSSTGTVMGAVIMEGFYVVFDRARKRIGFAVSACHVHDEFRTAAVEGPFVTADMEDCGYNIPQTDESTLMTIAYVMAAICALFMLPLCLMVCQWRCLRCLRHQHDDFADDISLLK
Assay: cell-based or functional assay
Assign maximal % inhibition of Abeta x-40 to each entry below.
Report the value in % with no unit label.

Request: Return reported maximal % inhibition of Abeta x-40. Input binder: 6290 (antibody, V domains shown, anti-BACE1 IgG) VH: QLQLQESGPGLVKPSETLSLTCTVSGGSISSSSYYWGWIRQPPGKGLEWIGMIYYSGSTWYNPSLKSRVTISVDTSKNQFSLKLSSVTAADTAVYYCARVGLGVSYFDLWGRGTLVTVSS VL: EIVLTQSPATLSLSPGERATLSCRASQSVSSYLAWYQQKPGQAPRLLIYDASKRATGIPARFSGSGSGTDFTLTISSLEPEDFAVYYCQQVYTWPPRTFGGGTKVEIK
Result: 63

Request: Return reported maximal % inhibition of Abeta x-40. Input binder: 6289 (antibody, V domains shown, anti-BACE1 IgG) VH: QLQLQESGPGLVKPSETLSLTCTVSGGSISSSSYYWGWIRQPPGKGLEWIGSIYRSGSTYYNPSLRSRVTISVDTSKNQFSLKLSSVTAADTAVYYCVRVGHGISYFDLWGRGTLVTVSS VL: EIVLTQSPATLSLSPGERATLSCRASQSVSSYLAWYQQKPGQAPRLLIYDASNRATGIPARFSGSGSGTDFTLTISSLEPEDFAVYYCQQSLTWPPRTFGGGTKVEIK
Result: 74
